meta.source: the supplement of paper PMC6555819

# Test system: PPARg DBDmut IVT, anti-PPARg (DBD mutation: PPARg1 K132A/R137A, NR concentration 270 nM)
# PROTOCOL_DETAILS: PBM binding z-score (relative to random genomic background probes); higher = stronger binding; sequences stand for … in GC…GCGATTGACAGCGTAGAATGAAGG
Below, each of the sequences is paired with its reported PBM binding z-score value.

// worked examples, PBM binding z-score included
{"columns": ["MONOMER_SEQUENCE", "MEASURED_VALUE"],
 "data": [
  ["CCTACTGAGCCATCAGGTCATTGATATCAACGTT", -0.632],
  ["ATCTCTAGGTCACCAAGTTCAGTGAATGCCGAAC", 2.04],
  ["CAAACTAGGTCACCGGAAGGTCCAAGTCCGCATG", 2.9]
]}

// GGAACGTGGGCAAGTTGATAGCAGAGTTTGATGG : PBM binding z-score value = -0.713

The sequence listed as CGTCCAAGGTCGATGCTAGGTCAGTGAAAGCATT shows PBM binding z-score equal to -0.767

Input TTAACAAGGTGAGCTGAGGTCGTTGATCCAACTC . Output PBM binding z-score: 0.378

Notebook: ACTATTAGTTGACTTAGGGCAACCGGTACGACGC , PBM binding z-score read as 0.218

Kindly note the recorded PBM binding z-score for TCATATAGGTAATACAGGTGCAAGTCGGCATCTA , which is 0.643

// PBM binding z-score lookup, sequence = ATATGTAGGTTAGCGGGTCATTCAGTTTGCGCAT , result: 1.79

Form field PBM binding z-score, entry CCTCGGAGGACAGAAGGTCGGAGCTGTCCGCTTT : -2.08

// PBM binding z-score lookup, sequence = ATACCAAGCTGATCGTGAGGTCGTTGATACTAAC , result: 0.536

Entry CGAACTAGGTCAGACCAGGACAGTGAAGGATGAT ; PBM binding z-score = 0.713

Note to self: PBM binding z-score recorded for CCTTACGTGTCACTGACAGGTTATAGCATTTGGA was 1.13

---

# Test system: VDR homodimer (NR concentration 270 nM)
# PROTOCOL_DETAILS: PBM binding z-score (relative to random genomic background probes); higher = stronger binding; sequences stand for … in GC…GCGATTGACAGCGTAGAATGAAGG
QUANTITY_NAME: PBM binding z-score
No unit in the answer, only the number.

{"columns": ["MONOMER_SEQUENCE", "PBM binding z-score"],
 "data": [
  ["ACTTACGGGTCAACGAGATTATAGCACGCGTATA", 1.35],
  ["TTACCAAGGTGCAGGTCGTTGATCCCTCTGTAGA", 0.805],
  ["TAGCCTAGGTGAGATCGGGCCAGTATACGCTATA", -0.357]
]}

Lab note: TCTGCCAGGTCAGTTGGTCAGCTAACGAGCTGCC gave PBM binding z-score of -0.514

The sequence identified as ATCTCAAGGTAAAAGTTCAGTGAATCCCGAGGAT registered its PBM binding z-score at 1.28

PBM binding z-score in this record for TCTTGTACATCAACAGGAGGTTAAGAAAGATCGA : 0.136

For record CCTGCTAGGTCATGGGCAGCTAATCTACAGTATG the listed PBM binding z-score is -0.0786
